measuredTarget: HDAC6 enzyme (Homo sapiens)
Construct: HDAC6 enzyme prepared by transducing full length HDAC6 gene into Sf-9 insect cells; GST; purchased SignalChem; host or cells: Sf-9 insect cells
Sequence (Q9UBN7 whole entry): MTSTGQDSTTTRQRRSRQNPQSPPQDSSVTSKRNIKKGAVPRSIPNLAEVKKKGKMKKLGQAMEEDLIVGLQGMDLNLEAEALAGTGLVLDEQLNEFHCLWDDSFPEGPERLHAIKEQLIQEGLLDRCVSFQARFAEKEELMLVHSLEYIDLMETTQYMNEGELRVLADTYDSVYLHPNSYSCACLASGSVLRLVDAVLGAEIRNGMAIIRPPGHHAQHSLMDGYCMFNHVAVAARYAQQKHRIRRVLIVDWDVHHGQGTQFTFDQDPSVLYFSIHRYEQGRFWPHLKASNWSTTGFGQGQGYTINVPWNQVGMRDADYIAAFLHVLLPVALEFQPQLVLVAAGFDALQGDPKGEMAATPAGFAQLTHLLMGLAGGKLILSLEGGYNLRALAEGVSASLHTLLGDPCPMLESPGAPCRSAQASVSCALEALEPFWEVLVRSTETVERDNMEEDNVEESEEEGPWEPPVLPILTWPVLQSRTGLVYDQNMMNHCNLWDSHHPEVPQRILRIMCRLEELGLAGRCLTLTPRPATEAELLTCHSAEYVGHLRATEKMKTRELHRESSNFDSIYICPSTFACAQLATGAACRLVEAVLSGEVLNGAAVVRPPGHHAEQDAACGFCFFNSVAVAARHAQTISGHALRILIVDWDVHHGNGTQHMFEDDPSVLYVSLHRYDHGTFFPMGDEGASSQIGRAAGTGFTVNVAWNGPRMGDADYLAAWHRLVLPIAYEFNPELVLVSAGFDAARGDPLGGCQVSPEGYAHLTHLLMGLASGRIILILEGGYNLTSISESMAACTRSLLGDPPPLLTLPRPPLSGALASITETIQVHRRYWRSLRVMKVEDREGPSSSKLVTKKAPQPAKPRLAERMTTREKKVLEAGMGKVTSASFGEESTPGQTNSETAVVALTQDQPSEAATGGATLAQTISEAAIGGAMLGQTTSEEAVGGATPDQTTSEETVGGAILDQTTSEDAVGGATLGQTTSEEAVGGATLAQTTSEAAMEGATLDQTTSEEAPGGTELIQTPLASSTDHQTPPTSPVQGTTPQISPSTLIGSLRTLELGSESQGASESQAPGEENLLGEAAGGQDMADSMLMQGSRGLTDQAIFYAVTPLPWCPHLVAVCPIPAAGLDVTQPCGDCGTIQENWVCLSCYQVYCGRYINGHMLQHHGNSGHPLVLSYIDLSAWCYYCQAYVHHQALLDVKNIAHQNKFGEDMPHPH
assayOverview: HDAC6 enzyme inhibitory assay (HDAC-Glo I/II Assay kit)
Type: biochemical
conditionDetails: wells without enzyme = 100% inhibition, read-out: HDAC6 inhibitory rate (%) (10 μM)
assayMetric: inhibition at 10 µM (%)

compound="N#Cc1ccc([C@H]([C@@H](O)c2ccccc2)N2Cc3ccc(-c4nnc(C(F)F)o4)cc3C2=O)cc1 (racemic) [Example 41]" assaymetric="inhibition at 10 µM" assayresult=100
compound="CCOc1ccc([C@H]([C@@H](O)c2ccc(F)c(F)c2)N2Cc3ccc(-c4nnc(C(F)F)o4)cc3C2=O)cn1 (racemic) [Example 53]" assaymetric="inhibition at 10 µM" assayresult=100
compound="O=C1c2cc(-c3nnc(C(F)F)o3)ccc2CN1[C@H](c1cccnn1)[C@@H](O)c1cccc(Cl)c1 (single isomer, unassigned) [Example 122]" assaymetric="inhibition at 10 µM" assayresult=100
